assay-protocol: Hygroscopicity or deliquescency evaluation (moisture adsorption, DVS)
Type: physicochemical
details: Table 5; 25° C., 90% RH, relative to weight at 0% RH
Assign Hygroscopicity or Deliquescency Weight change at 90% RH to each entry below.
// return numeric value only (unit: %, not printed)

Query: Hygroscopicity or Deliquescency Weight change at 90% RH; subject: CC(=O)NC1CCC(NC(=O)CN2CCN(c3nncc(-c4ccc(C)cc4)n3)CC2)CC1.CS(=O)(=O)O (stereo not drawn) [Mesilate Form A crystal] 17

Query: Hygroscopicity or Deliquescency Weight change at 90% RH; subject: CC(=O)NC1CCC(NC(=O)CN2CCN(c3nncc(-c4ccc(C)cc4)n3)CC2)CC1.Cl (stereo not drawn) [Hydrochloride Form A crystal] 7.5

Query: Hygroscopicity or Deliquescency Weight change at 90% RH; subject: CC(=O)NC1CCC(NC(=O)CN2CCN(c3nncc(-c4ccc(C)cc4)n3)CC2)CC1.O=C(O)CC(O)(CC(=O)O)C(=O)O (stereo not drawn) [Citrate Form A crystal] 7.6

###

Assign Tmax to each entry below.
assay-protocol: Pharmacokinetics in dogs treated with a promotor (pentagastrin) or an inhibitor (omeprazole) of gastric acid secretion
Type: in vivo, dogs (male beagle)
details: male, beagle, dog, plasma, po, 10 mg, oral 10 mg/capsule, fasted, Omeprazole, reduced gastric acid secretion, mean
// return numeric value only (unit: h, not printed)

Query: Tmax; subject: Br.CC(=O)N[C@H]1CC[C@H](NC(=O)CN2CCN(c3nncc(-c4ccc(C)cc4)n3)CC2)CC1 [Hydrobromide Form A crystal] 1.83

Query: Tmax; subject: `CC(=O)N[C@H]1CC[C@H](NC(=O)CN2CCN(c3nncc(-c4ccc(C)cc4)n3)CC2)CC1` 3.33

###

Assign Chemical stability 60° C. (sealed) to each entry below.
assay-protocol: Chemical stability evaluation (storage 1 week, liquid chromatography peak area %)
Assay type: physicochemical
details: Table 5; stored 1 week at 60° C. sealed; change of related substances (peak area %) vs start
// return numeric value only (unit: %, not printed)

Query: Chemical stability 60° C. (sealed); subject: CC(=O)NC1CCC(NC(=O)CN2CCN(c3nncc(-c4ccc(C)cc4)n3)CC2)CC1.CS(=O)(=O)O (stereo not shown) [Mesilate Form A crystal] −0.13

Query: Chemical stability 60° C. (sealed); subject: CC(=O)NC1CCC(NC(=O)CN2CCN(c3nncc(-c4ccc(C)cc4)n3)CC2)CC1.Cc1ccc(S(=O)(=O)O)cc1.Cc1ccc(S(=O)(=O)O)cc1 (stereo not shown) [Tosilate Form C crystal] 0.04

Query: Chemical stability 60° C. (sealed); subject: CC(=O)NC1CCC(NC(=O)CN2CCN(c3nncc(-c4ccc(C)cc4)n3)CC2)CC1.Cc1ccc(S(=O)(=O)O)cc1 (stereo not shown) [Tosilate Form B crystal] −0.07

Query: Chemical stability 60° C. (sealed); subject: CC(=O)NC1CCC(NC(=O)CN2CCN(c3nncc(-c4ccc(C)cc4)n3)CC2)CC1.O=C(O)CO (stereo not shown) [Glycolate Form A crystal] 0.02

Query: Chemical stability 60° C. (sealed); subject: CC(=O)NC1CCC(NC(=O)CN2CCN(c3nncc(-c4ccc(C)cc4)n3)CC2)CC1.Cl (stereo not shown) [Hydrochloride Form A crystal] −0.01

Query: Chemical stability 60° C. (sealed); subject: CC(=O)NC1CCC(NC(=O)CN2CCN(c3nncc(-c4ccc(C)cc4)n3)CC2)CC1.O=C(O)C=CC(=O)O (stereo not shown) [Maleate Form A crystal] 0.01

Query: Chemical stability 60° C. (sealed); subject: CC(=O)NC1CCC(NC(=O)CN2CCN(c3nncc(-c4ccc(C)cc4)n3)CC2)CC1.O=C(O)CCC(=O)O (stereo not shown) [Succinate Form A crystal] 0.04
